Data provenance is patent US20240116985A1.

target: full-length beta-Catenin (Uniprot ID P35222) (Homo sapiens); construct: 10 nM full-length beta-Catenin (Uniprot ID P35222); assay: Fluorescence polarization IC50 (beta-catenin / 5FAM-TCF4 10-53 competition); assay type: binding; conditions: fluorescence polarization; read-out: beta-Catenin FP IC50
test.readout: pIC50
// pIC50 is dimensionless: -log10 of concentration (M)

Summary for this compound, CC(=O)N1CCC[C@]12CC=CCCCC1(CCCC=CCCCOC(=O)N3CC[C@@](C(=O)N[C@@H](Cc4ccsc4)C(=O)N[C@@H](Cc4csc5ccccc45)C(=O)N[C@@H](CCC(N)=O)C(N)=O)(C3)NC(=O)[C@H](CCC(C)C)NC(=O)[C@H](Cc3ccccc3)NC(=O)[C@H](C)NC(=O)[C@H](C)NC(=O)[C@H]([C@@H](C)O)NC(=O)[C@H](CC(N)=O)NC1=O)NC(=O)[C@H](CC(C)(C)C)NC(=O)[C@H](CC(=O)O)NC2=O (some centres unmarked) [I-1620] : pIC50 is 5.69

Summary for this compound, CC(=O)N1CCC[C@]12CC=CCCCC1(CCCC=CCCCOC(=O)N3CC[C@@](C(=O)N[C@@H](Cc4ccsc4)C(=O)N[C@@H](Cc4csc5ccccc45)C(=O)N[C@@H](Cc4c[nH]c5ccccc45)C(N)=O)(C3)NC(=O)[C@H](CC(N)=O)NC(=O)[C@H](Cc3ccccc3)NC(=O)[C@H](C)NC(=O)[C@H](C)NC(=O)[C@H]([C@@H](C)O)NC(=O)[C@H](CC(N)=O)NC1=O)NC(=O)[C@H](CC(C)(C)C)NC(=O)[C@H](CC(=O)O)NC2=O (some centres unmarked) [I-2138] : pIC50 is 5.99

---

assay: Solubility in PBS; assay type: physicochemical; settings: Solubility (uM)
test.readout: Solubility

Summary for this molecule, CC(=O)N1CCC[C@]12CC=CCCCC1(CCCC=CCCCOC(=O)N3CC[C@@](C(=O)N[C@@H](Cc4ccsc4)C(=O)N[C@@H](Cc4csc5ccccc45)C(=O)N[C@@H](CCC(N)=O)C(N)=O)(C3)NC(=O)[C@H](CC(N)=O)NC(=O)[C@H](Cc3ccccc3)NC(=O)[C@H](CCCCNC(=O)C34CC5(C)CC(C)(CC(C)(C5)C3)C4)NC(=O)[C@H](C)NC(=O)[C@H](CC(=O)O)NC(=O)[C@H](CC(=O)O)NC1=O)NC(=O)[C@H](CC(C)(C)C)NC(=O)[C@H](CC(=O)O)NC2=O (some centres unmarked) : Solubility is 41 µM

Summary for this molecule, CC(=O)N1CCC[C@]12CC=CCCCC1(CCCC=CCCCOC(=O)N3CC[C@@](C(=O)N[C@@H](Cc4ccccc4Cl)C(=O)N[C@@H](Cc4csc5ccccc45)C(=O)N[C@@H](CCC(N)=O)C(N)=O)(C3)NC(=O)[C@H](CC(C)C)NC(=O)[C@H](Cc3cccc(C(F)(F)F)c3)NC(=O)[C@H](C)NC(=O)[C@H](C)NC(=O)[C@H](CC(=O)O)NC(=O)[C@H](CC(=O)O)NC1=O)NC(=O)[C@H](CC(C)(C)C)NC(=O)[C@H](CC(=O)O)NC2=O (some centres unmarked) : Solubility is 14 µM

---

target: full-length beta-Catenin (Uniprot ID P35222) (Homo sapiens); construct: 10 nM full-length beta-Catenin (Uniprot ID P35222); assay: Fluorescence polarization IC50 (beta-catenin / 5FAM-TCF4 10-53 competition); type: binding; conditions: fluorescence polarization; read-out: beta-Catenin FP IC50
test.readout: IC50 (µM)
Field: numeric (µM). Do not append units.

Summary for this molecule, CC(C)C[C@H](NC(=O)[C@]12CCN(C1)C(=O)OCCCC=CCCCC1(CCCC=CCCCC(=O)N3CCC[C@@]3(C)C(=O)N[C@@H](CC(=O)O)C(=O)N1)C(=O)N[C@@H](C)C(=O)N[C@@H](CC(=O)O)C(=O)N[C@@H](Cc1cccc(C(=O)O)c1)C(=O)N[C@@H](C)C(=O)N[C@@H](C)C(=O)N[C@@H](Cc1ccccc1)C(=O)N2)C(=O)N[C@@H](Cc1ccsc1)C(=O)N[C@@H](Cc1csc2ccccc12)C(=O)N[C@@H](CCC(N)=O)C(N)=O (some centres unmarked) : IC50 is 8.22

Summary for this molecule, CC(=O)N1CCC[C@]12CC=CCCCC1(CCCC=CCCCCCC[C@@](C)(C(=O)N[C@@H](Cc3ccccc3)C(=O)N[C@@H](Cc3csc4ccccc34)C(=O)N[C@@H](CCC(N)=O)C(N)=O)NC(=O)[C@H](CCC(N)=O)NC(=O)[C@H](Cc3ccccc3)NC(=O)[C@H](C)NC(=O)[C@H](C)NC(=O)[C@H](CCC(=O)O)NC(=O)[C@H](CC(=O)O)NC1=O)NC(=O)[C@H](CO)NC(=O)[C@H](CC(=O)O)NC2=O (some centres unmarked) [I-1527] : IC50 is 0.036

---

Can you tell me Solubility for the items I'm about to list?
assay: Solubility in PBS; format: physicochemical
Field: numeric (µM). Do not append units.

Summary for this compound, CC(=O)N1CCC[C@]12CC=CCCCC1(CCCC=CCCCOC(=O)N3CC[C@@](C(=O)N[C@H](Cc4ccccc4)C(=O)N[C@@H](Cc4csc5ccccc45)C(=O)N[C@@H](CCC(N)=O)C(N)=O)(C3)NC(=O)[C@H](CC(N)=O)NC(=O)[C@H](Cc3ccccc3)NC(=O)[C@H](C)NC(=O)[C@H](C)NC(=O)[C@H](CC(=O)O)NC(=O)[C@H](CC(=O)O)NC1=O)NC(=O)[C@H](CC(C)(C)C)NC(=O)[C@H](CC(=O)O)NC2=O (some centres unmarked) : Solubility is 50

Summary for this compound, CC(=O)N1CCC[C@]12CC=CCCCC1(CCCC=CCCCOC(=O)N3CC[C@@](C(=O)N[C@@H](Cc4ccccc4Cl)C(=O)N[C@@H](Cc4csc5ccccc45)C(=O)N[C@@H](CCC(N)=O)C(N)=O)(C3)NC(=O)[C@H](CC3CCCCC3)NC(=O)[C@H](Cc3ccccc3)NC(=O)[C@H](C)NC(=O)[C@H](C)NC(=O)[C@H](CC(=O)O)NC(=O)[C@H](CC(=O)O)NC1=O)NC(=O)[C@H](CC1CCCCC1)NC(=O)[C@H](CC(=O)O)NC2=O (some centres unmarked) : Solubility is 10

Summary for this compound, CC(=O)N1CCC[C@]12CC=CCCCC1(CCCC=CCCCCCC[C@@](C)(C(=O)N[C@@H](Cc3cccc(F)c3)C(=O)N[C@@H](Cc3c[nH]c4ccccc34)C(=O)N[C@@H](CCC(N)=O)C(N)=O)NC(=O)[C@H](CCC(N)=O)NC(=O)[C@H](Cc3ccsc3)NC(=O)[C@H](C)NC(=O)[C@H](C)NC(=O)[C@H](CCC(=O)O)NC(=O)[C@H](CC(=O)O)NC1=O)NC(=O)[C@H](C)NC(=O)[C@H](CC(=O)O)NC2=O (some centres unmarked) [I-452] : Solubility is 50

Summary for this compound, CC(=O)N1CCC[C@]12CC=CCCCC1(CCCC=CCCCOC(=O)N3CC[C@@](C(=O)N[C@@H](Cc4ccccc4)C(=O)N[C@@H](Cc4csc5ccccc45)C(=O)N[C@@H](Cc4c[nH]cn4)C(N)=O)(C3)NC(=O)[C@H](CC(N)=O)NC(=O)[C@H](Cc3ccccc3)NC(=O)[C@H](C)NC(=O)[C@H](C)NC(=O)[C@H](CCC(=O)O)NC(=O)[C@H](CC(=O)O)NC1=O)NC(=O)[C@H](CC(C)(C)C)NC(=O)[C@H](CC(=O)O)NC2=O (some centres unmarked) [I-692] : Solubility is 38

Summary for this compound, CC(=O)N1CCC[C@]12CC=CCCCC1(CCCC=CCCCCCC[C@@](C)(C(=O)N[C@@H](Cc3ccccc3)C(=O)N[C@@H](Cc3csc4ccccc34)C(=O)N[C@@H](Cc3c[nH]cn3)C(N)=O)NC(=O)[C@H]([C@@H](C)O)NC(=O)[C@H](Cc3ccccc3)NC(=O)[C@H](C)NC(=O)[C@H](C)NC(=O)[C@H](CCC(=O)O)NC(=O)[C@H](CC(=O)O)NC1=O)NC(=O)[C@H](CC(C)C)NC(=O)[C@H](CC(=O)O)NC2=O (some centres unmarked) [I-617] : Solubility is 10

---

Can you tell me log10 IC50 for the items I'm about to list?
Molecular target: full-length beta-Catenin (Uniprot ID P35222) (Homo sapiens)
Construct: 10 nM full-length beta-Catenin (Uniprot ID P35222)
Sequence (P35222 1-781): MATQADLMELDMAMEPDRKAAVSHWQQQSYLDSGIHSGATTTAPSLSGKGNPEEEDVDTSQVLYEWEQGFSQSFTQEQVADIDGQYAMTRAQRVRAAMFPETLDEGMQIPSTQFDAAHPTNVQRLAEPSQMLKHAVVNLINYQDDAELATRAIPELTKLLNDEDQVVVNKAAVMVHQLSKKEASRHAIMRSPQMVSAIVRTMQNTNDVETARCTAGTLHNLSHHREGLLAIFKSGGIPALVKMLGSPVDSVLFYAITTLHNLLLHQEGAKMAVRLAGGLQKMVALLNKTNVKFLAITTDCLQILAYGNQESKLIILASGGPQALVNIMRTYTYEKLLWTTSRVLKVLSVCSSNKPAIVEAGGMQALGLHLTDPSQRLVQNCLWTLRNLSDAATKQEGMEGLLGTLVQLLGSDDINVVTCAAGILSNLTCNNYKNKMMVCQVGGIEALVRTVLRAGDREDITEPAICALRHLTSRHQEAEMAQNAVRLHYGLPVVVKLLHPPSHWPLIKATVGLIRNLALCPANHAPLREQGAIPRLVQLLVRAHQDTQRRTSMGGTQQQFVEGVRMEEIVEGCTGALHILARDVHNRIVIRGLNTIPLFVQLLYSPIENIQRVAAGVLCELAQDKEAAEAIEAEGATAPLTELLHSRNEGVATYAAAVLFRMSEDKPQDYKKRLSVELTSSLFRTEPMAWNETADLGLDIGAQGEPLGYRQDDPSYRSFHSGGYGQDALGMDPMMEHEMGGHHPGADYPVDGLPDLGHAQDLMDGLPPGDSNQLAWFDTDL
Test: Fluorescence polarization IC50 (beta-catenin / 5FAM-TCF4 10-53 competition)
Type: binding
Details: read-out: FP EC50
Units before log transform: nM; reported quantity: IC50; transform: log10.

Summary for this compound, COc1ccccc1C[C@H](NC(=O)[C@]1(C)CCCCCCC=CCCCC2(CCCC=CC[C@]3(CCCN3C(C)=O)C(=O)N[C@@H](CC(=O)O)C(=O)N[C@@H](C)C(=O)N2)C(=O)N[C@@H](CC(=O)O)C(=O)N[C@@H](CCC(=O)O)C(=O)N[C@@H](C)C(=O)N[C@@H](C)C(=O)N[C@@H](Cc2ccccc2)C(=O)N[C@@H](CCC(N)=O)C(=O)N1)C(=O)N[C@@H](Cc1csc2ccccc12)C(=O)N[C@@H](CCC(N)=O)C(N)=O (some centres unmarked) [I-526] : log10 IC50 is 1.75

Summary for this compound, CC(=O)N1CCC[C@]12CC=CCCCC1(CCCC=CCCCCCC[C@@](C)(C(=O)N[C@@H](Cc3ccccc3)C(=O)N[C@@H](Cc3csc4ccccc34)C(=O)N(C)[C@@H](CO)C(N)=O)NC(=O)[C@H](CC(N)=O)NC(=O)[C@H](Cc3ccccc3)NC(=O)[C@H](C)NC(=O)[C@H](C)NC(=O)[C@H](CCC(=O)O)NC(=O)[C@H](CC(=O)O)NC1=O)NC(=O)[C@H](CC(C)C)NC(=O)[C@H](CC(=O)O)NC2=O (some centres unmarked) [I-759] : log10 IC50 is 3.18

Summary for this compound, CC[C@H](C)[C@H](NC(=O)[C@H](Cc1c[nH]cn1)NC(=O)[C@H](Cc1csc2ccccc12)NC(=O)[C@H](Cc1ccccc1)NC(=O)[C@]1(C)CCCCCCC=CCCCC2(CCCC=CC[C@]3(CCCN3C(C)=O)C(=O)N[C@@H](CC(=O)O)C(=O)N[C@@H](CC(C)C)C(=O)N2)C(=O)N[C@@H](CC(=O)O)C(=O)N[C@@H](CCC(=O)O)C(=O)N[C@@H](C)C(=O)N[C@@H](C)C(=O)N[C@@H](Cc2ccccc2)C(=O)N[C@@H](CC(N)=O)C(=O)N1)C(N)=O (some centres unmarked) [I-741] : log10 IC50 is 2.35

Summary for this compound, CC[C@H](C)[C@@H]1NC(=O)[C@H](CC(=O)O)NC(=O)[C@]2(CC=CCCCC3(CCCC=CCCCCCC[C@@](C)(C(=O)N[C@@H](Cc4ccccc4)C(=O)N[C@@H](Cc4csc5ccccc45)C(=O)N[C@@H](CCC(N)=O)C(N)=O)NC(=O)[C@H](CCC(N)=O)NC(=O)[C@H](Cc4ccccc4)NC(=O)[C@H](C)NC(=O)[C@H](C)NC(=O)[C@H](CCCNC(N)=O)NC(=O)[C@H](CC(=O)O)NC3=O)NC1=O)CCCN2C(C)=O (some centres unmarked) [I-605] : log10 IC50 is 2.80

Summary for this compound, CC(=O)N1CCC[C@]12CC=CCCCC1(CCCC=CCCCCCC[C@@](C)(C(=O)N[C@@H](Cc3ccsc3)C(=O)N[C@@H](Cc3csc4ccccc34)C(=O)N[C@@H](CCC(N)=O)C(N)=O)NC(=O)[C@H](CC(N)=O)NC(=O)[C@H](Cc3ccccc3)NC(=O)[C@H](C)NC(=O)[C@H](C)NC(=O)[C@H](CCC(=O)O)NC(=O)[C@H](CC(=O)O)NC1=O)NC(=O)[C@H](CC(C)(C)C)NC(=O)[C@H](CC(=O)O)NC2=O (some centres unmarked) [I-683] : log10 IC50 is 1.28
